Attribute: stability 90 C., 20 min V
Assay Comment: stability 90 C., 20 min (V, BP, TW, BS) of hydrocodone conjugates
Condition Summary: V (abbreviation not defined)
Residues, ends and D or L forms follow the SMILES beside them. *: point of attachment. X1 = COc1ccc2c3c1OC1C(O*)=CCC4[C@@H](C2)N(C)CC[C@]314

Request: What value of stability 90 C., 20 min V has been reported for the following compound? CC[C@H](C)[C@H](NC(=O)[C@H](CCCCN)NC(=O)[C@@H](N)CCCCN)C(=O)OC1=CCC2[C@H]3Cc4ccc(OC)c5c4[C@@]2(CCN3C)C1O5 (stereo partly shown)
Result: 0

Request: Would you mind telling me what stability 90 C., 20 min V value was observed for CC[C@H](C)[C@H](NC(=O)[C@@H]1CCCN1C(=O)[C@@H]1CCCN1C(=O)[C@H](CCCCN)NC(=O)[C@@H](N)CCCCN)C(=O)OC1=CCC2[C@H]3Cc4ccc(OC)c5c4[C@@]2(CCN3C)C1O5 (stereo partly shown) [Lys2-Pro2-Ile-HC] (H-KKPPI-X1) ?
Result: 0

---
Request: I am curious: what stability 90 C., 20 min V value has been reported for CC[C@H](C)[C@H](NC(=O)[C@@H]1CCCN1)C(=O)N[C@H](C(=O)OC1=CCC2[C@H]3Cc4ccc(OC)c5c4[C@@]2(CCN3C)C1O5)[C@@H](C)CC (stereo partly shown) ?
Result: 0

Request: Quick check: stability 90 C., 20 min V of CC[C@H](C)[C@H](NC(=O)[C@H](CC(=O)O)NC(=O)[C@H](CC(=O)O)NC(=O)[C@H](CCC(=O)O)NC(=O)[C@@H](N)CCC(=O)O)C(=O)OC1=CCC2[C@H]3Cc4ccc(OC)c5c4[C@@]2(CCN3C)C1O5 (stereo partly shown) [Glu2-Asp2-Ile-HC] (H-EEDDI-X1) ?
Result: 1

Request: Bench note: what stability 90 C., 20 min V did CC[C@H](C)[C@H](NC(=O)[C@H](CC(=O)O)NC(=O)[C@H](CC(=O)O)NC(=O)[C@H](CCCCN)NC(=O)[C@@H](N)CCCCN)C(=O)OC1=CCC2[C@H]3Cc4ccc(OC)c5c4[C@@]2(CCN3C)C1O5 (stereo partly shown) [Lys2-Asp2-Ile-HC] (H-KKDDI-X1) show?
Result: 0

Request: Returns the measured stability 90 C., 20 min V for the input compound. Input: COc1ccc2c3c1OC1C(OC(=O)[C@H](Cc4ccccc4)NC(=O)[C@@H]4CCCN4C(=O)[C@@H](N)CC(C)C)=CCC4[C@@H](C2)N(C)CC[C@]314 (stereo partly shown)
Result: 2

Request: What value of stability 90 C., 20 min V has been reported for the following compound? CC[C@H](C)[C@H](NC(=O)[C@@H]1CCCN1C(=O)[C@@H]1CCCN1)C(=O)OC1=CCC2[C@H]3Cc4ccc(OC)c5c4[C@@]2(CCN3C)C1O5 (stereo partly shown)
Result: 0

* * *

Assay Comment: Oral bioavailability of hydrocodone conjugates (plasma hydrocodone plus hydromorphone)
Condition Summary: ratio of oral to IN Cmax (% HC)
Residues, ends and D or L forms follow the SMILES beside them. *: point of attachment. X1 = COc1ccc2c3c1OC1C(O*)=CCC4[C@@H](C2)N(C)CC[C@]314
Oral:IN Index Cmax below 2 gives False; Oral:IN Index Cmax at or above it gives True.

The following molecules have reported results that may help.
Request: Quick check: does COc1ccc2c3c1OC1C(OC(=O)[C@H](Cc4ccccc4)NC(=O)CNC(=O)CNC(=O)[C@H](CCC(=O)O)NC(=O)[C@@H](N)CCC(=O)O)=CCC4[C@@H](C2)N(C)CC[C@]314 (stereo partly drawn) [Glu2-Gly2-Phe-HC] (H-EEGGF-X1) have Oral:IN Index Cmax greater than or equal to 2?
Result: False

Request: Could you verify whether the entry CC[C@H](C)[C@H](NC(=O)[C@H](CCC(=O)O)NC(=O)[C@H](CCC(=O)O)NC(=O)CNC(=O)CN)C(=O)OC1=CCC2[C@H]3Cc4ccc(OC)c5c4[C@@]2(CCN3C)C1O5 (stereo partly drawn) [Gly2-Glu2-Ile-HC] (H-GGEEI-X1) shows Oral:IN Index Cmax of no less than 2?
Result: False

Request: Does CC[C@H](C)[C@H](NC(=O)[C@H](Cc1ccc(O)cc1)NC(=O)[C@@H](N)Cc1ccc(O)cc1)C(=O)OC1=CCC2[C@H]3Cc4ccc(OC)c5c4[C@@]2(CCN3C)C1O5 (stereo partly drawn) have a reported Oral:IN Index Cmax of at least 2?
Result: True

Request: Threshold query (Oral:IN Index Cmax >= 2) on CC[C@H](C)[C@H](NC(=O)[C@H](Cc1ccccc1)NC(=O)[C@H](Cc1ccccc1)NC(=O)[C@H](Cc1ccc(O)cc1)NC(=O)[C@@H](N)Cc1ccc(O)cc1)C(=O)OC1=CCC2[C@H]3Cc4ccc(OC)c5c4[C@@]2(CCN3C)C1O5 (stereo partly drawn) [Tyr2-Phe2-Ile-HC] (H-YYFFI-X1)
Result: False

Request: Confirm if Oral:IN Index Cmax reported for the molecule CC[C@H](C)[C@H](NC(=O)[C@@H]1CCCN1C(=O)[C@@H]1CCCN1C(=O)CNC(=O)CN)C(=O)OC1=CCC2[C@H]3Cc4ccc(OC)c5c4[C@@]2(CCN3C)C1O5 (stereo partly drawn) [Gly2-Pro2-Ile-HC] (H-GGPPI-X1) is 2 or above.
Result: True

Request: Please tell me: is the molecule COc1ccc2c3c1OC1C(OC(=O)[C@H](Cc4ccccc4)NC(=O)[C@@H]4CCCN4C(=O)[C@@H](N)CC(C)C)=CCC4[C@@H](C2)N(C)CC[C@]314 (stereo partly drawn) at or over 2 in terms of Oral:IN Index Cmax?
Result: False

Request: Check the entry CC[C@H](C)[C@H](NC(=O)[C@H](CC(=O)O)NC(=O)[C@H](CC(=O)O)NC(=O)[C@H](CCCCN)NC(=O)[C@@H](N)CCCCN)C(=O)OC1=CCC2[C@H]3Cc4ccc(OC)c5c4[C@@]2(CCN3C)C1O5 (stereo partly drawn) [Lys2-Asp2-Ile-HC] (H-KKDDI-X1) : does Oral:IN Index Cmax equal or exceed 2?
Result: True

Request: Test whether the molecule COc1ccc2c3c1OC1C(OC(=O)[C@H](Cc4ccccc4)NC(=O)[C@H](Cc4ccccc4)NC(=O)[C@H](Cc4ccccc4)NC(=O)[C@H](CCC(=O)O)NC(=O)[C@@H](N)CCC(=O)O)=CCC4[C@@H](C2)N(C)CC[C@]314 (stereo partly drawn) [Glu2-Phe3-HC, Glu2-Phe3-Hydrocodone] (H-EEFFF-X1) records Oral:IN Index Cmax of 2 or higher.
Result: False

Further cases:
Request: Please tell me: is the molecule CC[C@H](C)[C@H](NC(=O)[C@H](CC(=O)O)NC(=O)[C@H](CC(=O)O)NC(=O)[C@H](CCC(=O)O)NC(=O)[C@@H](N)CCC(=O)O)C(=O)OC1=CCC2[C@H]3Cc4ccc(OC)c5c4[C@@]2(CCN3C)C1O5 (stereo partly drawn) [Glu2-Asp2-Ile-HC] (H-EEDDI-X1) at or over 2 in terms of Oral:IN Index Cmax?
Result: False

* * *

Assay Comment: Oral bioavailability of hydromorphone conjugates
Condition Summary: rats, corrected value calculated based on the bioavailability of the control (HM)
Endpoint Name: Oral AUC % (%)
Give the quantity in %, number only.

Request: Which measured Oral AUC % value corresponds to CC(C)[C@H](NC(=O)[C@H](Cc1ccccc1)NC(=O)[C@@H](N)Cc1ccccc1)C(=O)OC1=CC[C@H]2[C@H]3Cc4ccc(O)c5c4[C@@]2(CCN3C)[C@H]1O5 ?
Result: 8

Request: Param item = CC(C)C[C@H](NC(=O)[C@H](Cc1ccc(O)cc1)NC(=O)[C@@H](N)Cc1ccc(O)cc1)C(=O)OC1=CCC2[C@H]3Cc4ccc(O)c5c4[C@@]2(CCN3C)C1O5 (some centres unmarked) ; retrieve measured Oral AUC %.
Result: 12

Request: May I ask what Oral AUC % has been recorded for CC(C)C[C@H](NC(=O)[C@H](Cc1ccccc1)NC(=O)[C@@H](N)Cc1ccccc1)C(=O)OC1=CC[C@H]2[C@H]3Cc4ccc(O)c5c4[C@@]2(CCN3C)[C@H]1O5 ?
Result: 11

Request: // lookup Oral AUC % for CC(C)C[C@H](NC(=O)[C@H](CCCCN)NC(=O)[C@@H](N)CCCCN)C(=O)OC1=CCC2[C@H]3Cc4ccc(O)c5c4[C@@]2(CCN3C)C1O5 (some centres unmarked)
Result: 24

Continue with the next compound.
Request: Report Oral AUC % for CC(C)[C@H](NC(=O)[C@H](CCCCN)NC(=O)[C@@H](N)CCCCN)C(=O)OC1=CCC2[C@H]3Cc4ccc(O)c5c4[C@@]2(CCN3C)C1O5 (some centres unmarked) please.
Result: 43

Reference source for all entries: patent US20100144645A1
